# test-protocol: Solubility of compound in safety solvent
# Type: physicochemical
# setup-conditions: solvent cyclohexanone (CHN)
# Description: (1) Solubility of Compound in Safety Solvent The compounds obtained in Synthesis Examples 1 to 6 and Synthesis 1 to 4 were evaluated for the solubility in propylene glycol monomethyl ether (PGME) and cyclohexanone (CHN). B: 1.0 wt %≦dissolved amount<4.0 wt % C: dissolved amount<1.0 wt %
recorded-metric: Solubility in CHN

Oc1cc(O)c2cc1C(c1ccc(-c3ccccc3)cc1)c1cc(c(O)cc1O)C(c1ccc(-c3ccccc3)cc1)c1cc(c(O)cc1O)C(c1ccc(-c3ccccc3)cc1)c1cc(c(O)cc1O)C2c1ccc(-c2ccccc2)cc1 (stereo not shown) ... A (4.0 wt %≦amount)
CC(C)c1ccc(C2c3cc(c(O)cc3O)C(c3ccc(C(C)C)cc3)c3cc(c(O)cc3O)C(c3ccc(C(C)C)cc3)c3cc(c(O)cc3O)C(c3ccc(C(C)C)cc3)c3cc2c(O)cc3O)cc1 (stereo not shown) ... A (4.0 wt %≦amount)
Oc1cc(O)c2cc1C(c1ccc(C3CCCCC3)cc1)c1cc(c(O)cc1O)C(c1ccc(C3CCCCC3)cc1)c1cc(c(O)cc1O)C(c1ccc(C3CCCCC3)cc1)c1cc(c(O)cc1O)C2c1ccc(C2CCCCC2)cc1 (stereo not shown) ... A (4.0 wt %≦amount)
